- Study target: hNPRA (Homo sapiens, UniProt P16066)
- Sequence (P16066 33-1061): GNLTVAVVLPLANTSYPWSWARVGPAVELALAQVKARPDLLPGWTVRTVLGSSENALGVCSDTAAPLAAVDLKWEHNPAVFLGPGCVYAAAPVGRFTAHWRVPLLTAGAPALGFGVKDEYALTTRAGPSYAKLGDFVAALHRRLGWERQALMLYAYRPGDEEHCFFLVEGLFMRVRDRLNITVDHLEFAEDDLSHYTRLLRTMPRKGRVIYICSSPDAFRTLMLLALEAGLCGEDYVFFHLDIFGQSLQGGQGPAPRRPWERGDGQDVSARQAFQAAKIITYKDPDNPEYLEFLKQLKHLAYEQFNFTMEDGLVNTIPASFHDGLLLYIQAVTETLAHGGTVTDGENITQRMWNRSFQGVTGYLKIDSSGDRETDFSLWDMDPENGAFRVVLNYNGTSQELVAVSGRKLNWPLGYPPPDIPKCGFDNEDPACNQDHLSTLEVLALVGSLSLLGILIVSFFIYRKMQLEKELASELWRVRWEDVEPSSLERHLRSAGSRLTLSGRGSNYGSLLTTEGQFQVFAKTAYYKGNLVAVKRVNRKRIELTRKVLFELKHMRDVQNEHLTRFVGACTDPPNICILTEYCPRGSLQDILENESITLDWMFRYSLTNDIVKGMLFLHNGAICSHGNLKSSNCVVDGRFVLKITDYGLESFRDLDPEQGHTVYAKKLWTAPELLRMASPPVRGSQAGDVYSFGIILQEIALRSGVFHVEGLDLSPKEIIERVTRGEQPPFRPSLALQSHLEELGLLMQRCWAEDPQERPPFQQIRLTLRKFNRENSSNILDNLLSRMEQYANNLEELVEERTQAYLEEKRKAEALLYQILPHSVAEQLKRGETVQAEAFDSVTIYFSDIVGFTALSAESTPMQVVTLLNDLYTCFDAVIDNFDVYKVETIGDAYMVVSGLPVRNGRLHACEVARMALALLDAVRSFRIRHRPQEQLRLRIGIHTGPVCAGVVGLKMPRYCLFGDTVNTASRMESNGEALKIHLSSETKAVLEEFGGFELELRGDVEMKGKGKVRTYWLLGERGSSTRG
- Assay comment: NPRA Functional Cell Assay (cGMP HTRF, NPRA HEK JumpIn stable cells)
- Condition label: cGMP production, 1 hour at 37° C., 10-point dose response
Value kind: EC50

Observe how each entry below is paired with its result.
Compound | EC50
CC(C)(C)[C@H]1CCc2nc3sc(C(=O)N[C@H](CCN4CCC(c5ccccn5)CC4)c4cccc(NS(C)(=O)=O)c4)cc3cc2C1 (racemic) | 1790 nM
CC(C)(C)[C@H]1CCc2nc3sc(C(=O)N[C@H](CCN4CCOCC4)c4ccc(C(=O)N[C@H]5CNC[C@@H]5O)cc4)cc3cc2C1 (racemic) | 987 nM
CN1CC(NC(=O)c2cccc([C@@H](CCN3CCC(CO)CC3)NC(=O)c3nc4cc5c(nc4s3)CC[C@H](C(C)(C)C)C5)c2)C1 (racemic) | 186 nM
CN(C)CC[C@@H](NC(=O)c1nc2cc3c(nc2s1)CC[C@H](C(C)(C)C)C3)c1cccc(C(=O)N2CC3(CNC3)C2)c1 (racemic) | 292 nM
Cc1n[nH]c(C)c1-c1ccc([C@@H](CCN2CCC(O)CC2)NC(=O)c2nc3cc4c(nc3s2)CC[C@H](C(C)(C)C)C4)cc1 (racemic) | 959 nM
CN(C)CC[C@@H](NC(=O)c1nc2cc3c(nc2s1)CC[C@H](C(C)(C)C)C3)c1cccc(C(=O)N[C@H]2CCN(C)C2)c1 (racemic) | 207 nM
CN(C)CC[C@@H](NC(=O)c1nc2cc3c(nc2s1)CC[C@H](C(C)(C)C)C3)c1cccc(C(=O)NC2CN(C)C2)c1 (racemic) | 183 nM
CC(C)(C)[C@H]1CCc2nc3sc(C(=O)N[C@H](CCN4CCC(O)CC4)c4cccc(N5CCNC5=O)c4)nc3cc2C1 (racemic) | 795 nM
CC(C)(C)[C@H]1CCc2nc3sc(C(=O)N[C@H](CCN4CCC(O)CC4)c4cccc(C(=O)N5CC(O)C5)c4)nc3cc2C1 (racemic) | 830 nM
CC1([C@H]2CCc3nc4sc(C(=O)N[C@H](CCN5CCC(O)CC5)c5ccc(-c6cn[nH]c6)cc5)nc4cc3C2)CC1 | 655 nM

Parameters: items (list). Returns: EC50 for each item.
1. CN(CCO)CC[C@@H](NC(=O)c1nc2cc3c(nc2s1)CC[C@H](C(C)(C)C)C3)c1ccc(NS(=O)(=O)N(C)C)nc1 (racemic) [Example 206, 2,2,2-trifluoroacetate]
2. O=C(N[C@H](CCN1CCC(O)CC1)c1ccc(-c2cnc(O)c(F)c2)cc1)c1nc2cc3c(nc2s1)CC[C@H](C1(C(F)(F)F)CC1)C3

Result ::
674 nM
560 nM
